- Tested on: Leishmania donovani
- protocolSummary: Antileishmanial activity against Leishmania donovani MHOM/SD/62/1S-CL2D LdBOB amastigotes harboring eGFP infected in human THP1 cells assessed as reduction in number of amastigotes per cell after 96 hrs by DAPI staining based microscopic analysis
- Type: functional, organism-based
- reportedConditions: THP-1, 96 h
Quick reference for IC50 among some molecules

Examples with their reported IC50 follow.
COc1ccc2nc(S(C)(=O)=O)c(NCCC(C)C)nc2c1
> 50 µM
Clc1cc2nc(-c3ccccc3)c(-c3ccccc3)nc2cc1Cl
> 50 µM
CCCCNc1nc2cc(Cl)ccc2nc1S(C)(=O)=O
7.94 µM

Need IC50, item `COc1ccc2nc(S(C)(=O)=O)c(NC3CCCCC3)nc2c1`
> 50 µM

Need IC50, item `CCCCNc1nc2cc(Br)ccc2nc1S(C)(=O)=O`
6.31 µM

Need IC50, item COc1ccc2nc(-c3ccc(Cl)cc3)c(-c3ccc([S+](C)[O-])cc3)nc2c1 (stereo not given)
12.6 µM

Need IC50, item `CCCCNc1nc2ccc(OC)cc2nc1S(C)(=O)=O`
25.1 µM

Need IC50, item `CCCCNc1nc2cc(OC)ccc2nc1S(C)(=O)=O`
> 50 µM

Need IC50, item COc1ccc2nc(NC3CCCCC3)c([S+](C)[O-])nc2c1 (stereo not given)
6.31 µM

Need IC50, item `Cc1ccc(-c2nc3cc(Cl)c(Cl)cc3nc2-c2ccccc2)cc1`
> 50 µM

* * *

- protocolSummary: Cytotoxicity against human HepG2 cells after 48 hrs by CellTiter-Glo cell viability assay
- Type: cell-based
One threshold, 10 µM, splits the recorded CC50 at 48 h values: lower ones are Criterion met, equal or higher ones are Criterion not met.

COc1ccc2nc(NCCO)c(S(C)(=O)=O)nc2c1
Criterion not met
COc1ccc2nc(NC3CCCCC3)c([S+](C)[O-])nc2c1 (configuration not stated)
Criterion not met
Clc1ccc2nc(-c3ccccc3)c(-c3ccccc3)nc2c1
Criterion not met
COc1ccc2nc(S(C)(=O)=O)c(NCC(C)C)nc2c1
Criterion not met
C[S+]([O-])c1ccc(-c2nc3ccc(Cl)cc3nc2-c2ccc(Cl)cc2)cc1 (configuration not stated)
Criterion met

I wonder whether `CS(=O)(=O)c1ccc(-c2nc3ccc(Br)cc3nc2-c2ccc(Cl)cc2)cc1` has CC50 at 48 h below 10 µM. Can you tell?
Criterion met

I wonder whether `COc1ccc2nc(S(C)(=O)=O)c(NCCC(C)C)nc2c1` has CC50 at 48 h below 10 µM. Can you tell?
Criterion not met

I wonder whether `COc1ccc2nc(-c3ccc(S(C)(=O)=O)cc3)c(-c3ccc(Cl)cc3)nc2c1` has CC50 at 48 h below 10 µM. Can you tell?
Criterion not met

I wonder whether `COc1ccc(-c2nc3ccccc3nc2-c2ccc(OC)cc2)cc1` has CC50 at 48 h below 10 µM. Can you tell?
Criterion not met

I wonder whether `COc1ccc2nc(-c3ccc(Cl)cc3)c(-c3ccc(S(C)(=O)=O)cc3)nc2c1` has CC50 at 48 h below 10 µM. Can you tell?
Criterion met

I wonder whether `COc1ccc2nc(S(C)(=O)=O)c(NCCO)nc2c1` has CC50 at 48 h below 10 µM. Can you tell?
Criterion not met

I wonder whether `CCCCNc1nc2cc(Cl)ccc2nc1S(C)(=O)=O` has CC50 at 48 h below 10 µM. Can you tell?
Criterion met

I wonder whether `Cc1ccc(-c2nc3cc(Cl)c(Cl)cc3nc2-c2ccccc2)cc1` has CC50 at 48 h below 10 µM. Can you tell?
Criterion not met

I wonder whether `Clc1cc2nc(-c3ccccc3)c(-c3ccccc3)nc2cc1Cl` has CC50 at 48 h below 10 µM. Can you tell?
Criterion not met

I wonder whether COc1ccc2nc(-c3ccc(Cl)cc3)c(-c3ccc([S+](C)[O-])cc3)nc2c1 (configuration not stated) has CC50 at 48 h below 10 µM. Can you tell?
Criterion met

I wonder whether `CCCCNc1nc2cc(OC)ccc2nc1S(C)(=O)=O` has CC50 at 48 h below 10 µM. Can you tell?
Criterion not met

I wonder whether `COc1ccc2nc(-c3ccc(-c4ccccc4)cc3)c(-c3ccc(S(C)(=O)=O)cc3)nc2c1` has CC50 at 48 h below 10 µM. Can you tell?
Criterion not met

I wonder whether `CS(=O)(=O)c1ccc(-c2nc3ccc(Cl)cc3nc2-c2ccc(Cl)cc2)cc1` has CC50 at 48 h below 10 µM. Can you tell?
Criterion met

I wonder whether C[S+]([O-])c1nc2ccc(Cl)cc2nc1NC1CCCCC1 (configuration not stated) has CC50 at 48 h below 10 µM. Can you tell?
Criterion not met

I wonder whether `COc1ccc2nc(NC3CCCCC3)c(S(C)(=O)=O)nc2c1` has CC50 at 48 h below 10 µM. Can you tell?
Criterion not met

I wonder whether `CS(=O)(=O)c1nc2ccc(Cl)cc2nc1NC1CCCCC1` has CC50 at 48 h below 10 µM. Can you tell?
Criterion met

I wonder whether `COc1ccc2nc(S(C)(=O)=O)c(NC3CCCCC3)nc2c1` has CC50 at 48 h below 10 µM. Can you tell?
Criterion not met

I wonder whether `COc1ccc2nc(NCC(C)C)c(S(C)(=O)=O)nc2c1` has CC50 at 48 h below 10 µM. Can you tell?
Criterion not met

I wonder whether `CCCCNc1nc2cc(Br)ccc2nc1S(C)(=O)=O` has CC50 at 48 h below 10 µM. Can you tell?
Criterion met

I wonder whether `CCCCNc1nc2ccccc2nc1S(C)(=O)=O` has CC50 at 48 h below 10 µM. Can you tell?
Criterion not met

I wonder whether `CCCCNc1nc2ccc(OC)cc2nc1S(C)(=O)=O` has CC50 at 48 h below 10 µM. Can you tell?
Criterion not met
